# tested-system: Genome polyprotein (dengue virus type 2)
# Format: functional, Thailand/16681/1984
Peptide text beside a SMILES is read from it. * marks the point of attachment. pNA = O=[N+]([O-])c1ccc(N*)cc1; Boc = CC(C)(C)OC(=O)*
Exercise: for every item that follows, state its recorded IC50.

compound | test-value
CSCC[C@H](NC(=O)OC(C)(C)C)C(=O)N1CCC[C@H]1C(=O)Nc1ccc([N+](=O)[O-])cc1 (Boc-Met-Pro-pNA) | > 99.5 µM

I would be grateful if you could provide IC50 for each of the following entries.
1. Cn1cc(-c2cccc([C@@H](NC(=O)OCc3ccccc3)C(=O)Nc3cccc(CN)c3)c2)ccc1=O
2. NCc1cccc(NC(=O)c2cc(Cl)cc(C(N)=O)c2)c1
3. CC(C)CC(=O)N1CCC([C@H](NC(=O)OCc2ccccc2)C(=O)Nc2cccc(CN)c2)CC1
4. COc1ccc(S(=O)(=O)Nc2ccc(C(=O)Nc3nc4ccccc4s3)cc2)cc1
5. O=C(O)c1cc(Cl)ccc1NS(=O)(=O)c1ccc(-c2ccccc2Cl)cc1
6. NCc1cc(S(=O)(=O)Nc2ccc(Cl)cc2C(=O)NCC(F)(F)F)ccc1Oc1ccccc1

> 99.5 µM
> 99.5 µM
> 99.5 µM
> 99.5 µM
6.93 µM
> 99.5 µM

Give me IC50 for each of these compounds, listed below.
1. NCc1cccc(NC(=O)[C@H]2C[C@@H](C(F)(F)F)C[C@@H](C(F)(F)F)C2)c1
2. O=c1ccc(N2CCN(Cc3c[nH]c4ccccc34)CC2)c[nH]1
3. O=C1Cc2c(cccc2C(=O)N[C@H]2CC[C@H](OC3CCCC3)CC2)N1
4. NCc1ccccc1C1CCN(C(=O)[C@H]2CCN3CC[C@H]2C3)CC1
5. Nc1nc2ccc(NC(=O)c3cc(Cl)cc(NC(=O)OCc4ccccc4)c3)cc2[nH]1
6. Cn1ncc(CN2CCC([C@H](NC(=O)OCc3ccccc3)C(=O)Nc3cccc(CN)c3)CC2)n1

["> 99.5 µM", "> 99.5 µM", "> 99.5 µM", "> 99.5 µM", "> 99.5 µM", "> 99.5 µM"]

Give me IC50 for each of these compounds, listed below.
1. O=C(Nc1cc(-c2cccnc2)ccn1)c1sc2c(c1Br)CNC2
2. NC1(c2ccccc2NS(=O)(=O)c2ccc(Oc3ccccc3Cl)cc2)CC1
3. CCNCc1ccc(NC(=O)c2cc(Cl)cc3[nH]ncc23)cc1
4. CCSc1nnc(SCCn2nc3ccccn3c2=O)s1
5. CCC1CN(C(=O)c2cc(Cl)ccc2NS(=O)(=O)c2ccc(Oc3ccccc3Cl)cc2)C1

1. > 99.5 µM
2. > 99.5 µM
3. > 99.5 µM
4. > 99.5 µM
5. > 99.5 µM

###

Can you tell me pIC50 for the items I'm about to list?
# tested-system: Genome polyprotein (dengue virus type 2, UniProt P29990)
# Sequence (P29990 1346-1475 limits assumed): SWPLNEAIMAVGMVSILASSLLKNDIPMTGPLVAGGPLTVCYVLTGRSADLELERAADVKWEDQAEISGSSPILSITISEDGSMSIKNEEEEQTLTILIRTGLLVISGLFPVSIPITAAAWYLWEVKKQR
# Sequence (P29990 1476-2093 limits assumed): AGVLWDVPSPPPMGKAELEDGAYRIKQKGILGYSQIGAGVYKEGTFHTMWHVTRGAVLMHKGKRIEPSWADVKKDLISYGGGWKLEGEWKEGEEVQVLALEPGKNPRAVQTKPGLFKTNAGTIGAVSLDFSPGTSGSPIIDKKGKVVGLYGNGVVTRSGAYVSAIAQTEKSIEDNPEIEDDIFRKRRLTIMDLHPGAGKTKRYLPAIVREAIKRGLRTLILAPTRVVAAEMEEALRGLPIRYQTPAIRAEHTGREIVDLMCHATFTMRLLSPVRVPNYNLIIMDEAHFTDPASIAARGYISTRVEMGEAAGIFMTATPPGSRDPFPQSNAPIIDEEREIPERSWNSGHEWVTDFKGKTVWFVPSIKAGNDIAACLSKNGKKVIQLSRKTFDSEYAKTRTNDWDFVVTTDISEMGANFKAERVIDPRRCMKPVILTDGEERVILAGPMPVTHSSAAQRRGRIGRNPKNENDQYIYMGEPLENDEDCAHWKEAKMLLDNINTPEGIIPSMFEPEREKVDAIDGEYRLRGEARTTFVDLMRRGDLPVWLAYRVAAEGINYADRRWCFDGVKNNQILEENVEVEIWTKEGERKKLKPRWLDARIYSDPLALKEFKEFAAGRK
# Assay type: functional, Thailand/16681/1984
pIC50: −log10 of the molar value.

Sample records with pIC50:
sample-smiles | pIC50
CN(C(=O)c1cc(Cl)cc2[nH]ncc12)c1ccc2c(c1)CNC2 | < 4.00
CCOCC1(c2nc3c(C(=O)Nc4ccc5c(c4)CNC5)cc(Cl)cc3[nH]2)CC1 | 4.06
CC(C)NC(=O)[C@H](Nc1ccc2c(c1)CN(CC(F)F)C2)c1cc(Cl)cc2[nH]ncc12 | < 4.00
O=C(Nc1cc(Cl)cc(C(=O)NC2(c3nnn[nH]3)CC2)c1)OCc1ccccc1 | < 4.00

Could you now look at the following compound, please?
Given the entry CCc1onc(C2CCOCC2)c1C(=O)Nc1cccc(CN)c1 , what pIC50 was observed with Genome polyprotein (dengue virus type 2, UniProt P29990)?
< 4.00

###

# tested-system: Genome polyprotein (dengue virus type 2)
# Type: functional, Thailand/16681/1984
quantity-kind: IC50

sample-smiles | IC50
O=C(O)c1cc(Cl)ccc1NS(=O)(=O)c1ccc(-c2cccc(F)c2F)cc1 | 8.82 µM
NCCCc1ccnc(NC(=O)c2nnc(C3CC3)s2)c1 | > 99.5 µM
O=C1Cc2c(cccc2C(=O)NC2CCN(c3nccs3)CC2)N1 | > 99.5 µM
CC(C)N1CCc2nc(NC(=O)c3cc(Cl)cc(NC(=O)OCc4ccccc4)c3)sc2C1 | > 99.5 µM
C[C@]1(OCCO)C(=O)Nc2cc(F)cc(C(=O)Nc3ccc4c(c3)CNC4)c21 | > 99.5 µM

Record IC50 for all entries; do not skip any.
1. CC(=O)N1CCCc2cc(NC(=O)c3cc(C4CC4)n(C)c3C)ccc21
2. O=C(Nc1cc2c(cc1Br)CNC2)c1cc(F)cc2[nH]ncc12
3. NCc1ccccc1NC(=O)c1cc(Cl)cc(NC(=O)OCc2ccccc2)c1
4. O=C(Nc1cc(Cl)cc(C(=O)Nc2cc(-c3nnn[nH]3)ccc2F)c1)OCc1ccccc1
5. Cc1nc(C2CC2)sc1C(=O)Nc1cc(CCCN)ccn1
6. NC[C@H]1CC[C@@H](CNC(=O)[C@@H](NC(=O)OCc2ccccc2)c2ccc(OCc3ccccc3)cc2)CC1
7. O=C(Nc1ccc2c(c1)CNC2)c1cc(Cl)cc2c1cnn2C[C@H]1CCCO1

["> 99.5 µM", "67 µM", "> 99.5 µM", "15.6 µM", "> 99.5 µM", "85.6 µM", "> 99.5 µM"]

###

# tested-system: UniProt P29990
# Format: functional, Thailand/16681/1984
pIC50: −log10 of the molar value.
Kindly supply the reported pIC50 values for the records listed here.

Example entries and their recorded answers appear below.
sample-smiles | pIC50
O=C1Cc2c(cccc2C(=O)Nc2ccc(N3CCOC3=O)nc2)N1 | < 4.00
COCCOc1ccc(Cl)cc1C(=O)Nc1ccc2c(c1)CNC2 | < 4.00
O=C(Nc1ccc2c(c1)CNC2)c1cc(Br)cc2[nH]ncc12 | < 4.00
NCc1cccc(NC(=O)[C@H](NC(=O)OCc2ccccc2)C2CCN(C(=O)Cc3ccccc3)CC2)c1 | < 4.00
CC(C)(C#N)c1cc(C(=O)Nc2cccc(CN)c2)cc(C(F)(F)F)c1 | < 4.00
O=C(CSc1cccc(Br)c1)Nc1ccc2c(c1)CNC2 | < 4.00

Working through the 6 compounds below one at a time, give pIC50 for each.
1. O=C(Nc1cc(Cl)cc(C(=O)Nc2ccc3c(c2)COC3)c1)OCc1ccccc1
2. Nc1cccc(NC(=O)c2cc(Cl)cc(NC(=O)OCc3ccccc3)c2)n1
3. CC(C)N1C(=O)C[C@H](C(=O)Nc2cccc(CN)c2)[C@H]1c1ccc(Cl)c(F)c1
4. O=C(NCC(F)F)[C@H](Nc1cnc2c(c1)CNC2)c1cc(Cl)cc(C2CC2)c1
5. COC(=O)[C@H]1NCc2cc(NC(=O)c3cc(F)cc4[nH]ncc34)ccc21
6. O=C1Cc2c(cc(Br)cc2C(=O)Nc2ccc3c(c2)CNC3)N1

1. < 4.00
2. < 4.00
3. < 4.00
4. < 4.00
5. < 4.00
6. < 4.00

Go through the list and state pIC50 for each entry.
1. O=C(Nc1cc(Cl)cc([C@H]2Nc3ccc(-c4nn[nH]n4)cc3[C@H]3OCCC[C@@H]23)c1)OCc1ccccc1
2. CCc1cc(Cl)cc(C(=O)Nc2ccc3c(c2)CNC3)c1
3. O=C(Nc1ccc2c(c1)CNC2)c1cc(F)cc2[nH]c(-c3ccc(F)cc3O)nc12
4. O=Cc1cc(Cl)cc(NC(=O)OCc2ccccc2)c1

1: < 4.00; 2: < 4.00; 3: < 4.00; 4: < 4.00

Parameter requested: pIC50. Apply to each item below.
1. NC[C@H]1C[C@](F)(CNC(=O)c2cc(Cl)cc(NC(=O)OCc3ccccc3)c2)C1
2. CN(C)C(=O)c1cc(CN)cc([C@@H]2C[C@H]2c2cc(Cl)cc(NC(=O)OCc3ccccc3)c2)c1
3. NCc1cccc(NC(=O)c2cc(NC(=O)OCc3ccccc3)cc(C(F)(F)F)c2)c1
4. O=C(Nc1ccc2c(c1)CNC2)c1n[nH]c2ccc(F)cc12
5. NCc1cccnc1NS(=O)(=O)c1ccc(Oc2ccccc2Cl)cc1
6. CCc1[nH]c2ccccc2c1CN1CCC(c2cscn2)CC1
7. O=C(Nc1ccc2c(c1)CNC2)c1cc(Br)cc2[nH]c(=O)[nH]c12

1: < 4.00; 2: < 4.00; 3: < 4.00; 4: 4.10; 5: < 4.00; 6: < 4.00; 7: 4.26

Dear colleague, could you send me pIC50 for each of the items below? Thanks.
1. Cc1cccc(CNc2ccc(Cl)cc2C(=O)Nc2ccc3c(c2)CNC3)n1
2. NCc1cc(NC(=O)c2cc(Cl)cc(NC(=O)OCc3ccccc3)c2)cc(C2=CC[C@H](C(=O)O)C2)c1
3. O=C(Nc1cc(Cl)cc(C(=O)N2CC[C@H](C(=O)O)C2)c1)OCc1ccccc1

1. < 4.00
2. < 4.00
3. < 4.00

Give one value of pIC50 per listed compound.
1. O=C(Nc1cc(Cl)cc(C(=O)Nc2ccc(C3CNC3)cc2)c1)OCc1ccccc1
2. O=C(Nc1ccc2c(c1)CNC2)c1ncnc2sccc12
3. Cc1c(C(=O)Nc2cc(-c3cnn(C)c3)ccn2)cc(C2CC2)n1C
4. O=C(Nc1cc(Cl)cc(C(=O)NC[C@H]2C[C@@H]2C(=O)O)c1)OCc1ccccc1
5. NS(=O)(=O)c1cc(Cl)cc(C(=O)Nc2ccc3c(c2)CNC3)c1
6. Cc1cc(C(=O)Nc2cccc(CN)c2)c2cnn(-c3ccc(F)cc3)c2n1

1. < 4.00
2. < 4.00
3. < 4.00
4. < 4.00
5. < 4.00
6. < 4.00

For the 2 compounds below, give their pIC50 values.
1. C[C@@H](N)c1cc(Cl)cc(C(=O)Nc2cccc(CN)c2)c1
2. Cc1c(C(=O)Nc2cc(CN)ccc2F)cc(C2CC2)n1C

1: < 4.00; 2: < 4.00

Please give pIC50, item by item, for the list that follows.
1. O=C1OCc2ccc(NC(=O)[C@H]3CNCc4[nH]ncc43)cc21
2. O=C(Nc1cc(Cl)cc(C(=O)Nc2nccn2C2CNC2)c1)OCc1ccccc1
3. O=C(Nc1ccc2c(c1)CNC2)c1cccc2[nH]ccc12
4. CNc1ncc(C(F)(F)F)cc1-c1ccc2[nH]c(C(=O)O)cc2c1
5. N[C@@H]1CC[C@H](NC(=O)c2cc(Cl)cc(NC(=O)OCc3ccccc3)c2)C1
6. Cc1c(C(=O)O)sc2ncc(Cc3c[nH]c4ccc(Cl)cc34)cc12

< 4.00
< 4.00
< 4.00
< 4.00
< 4.00
4.60

Batch lookup, pIC50 per entry.
1. O=C(Nc1cnc2c(c1)CNCC2)c1cc(Cl)cc2[nH]ncc12
2. O=C(O)CCc1ccc(NC(=O)c2cc(Cl)cc(C3CC3)c2)cc1

< 4.00
< 4.00

Reference source: ChEMBL document CHEMBL5604063
